System: MCF7
experimental details: Growth inhibition of human MCF7 cells after 72 hrs by MTT assay
Assay type: functional, cell-based
experimental context: MCF7, 72 h
pIC50: −log10 of the molar value.
measurement name: pIC50

# compound, measurement name, readout value
data = [
    ("COc1ccc(C2CC2C(=O)NNc2nncc3ccccc23)cc1 (stereo unspecified)", "pIC50", 4.14),
    ("CC(C)=CCC/C(C)=C/COc1ccc(C2CC2c2nnc3c4ccccc4cnn23)cc1 (stereo unspecified)", "pIC50", 5.05),
    ("O=C(NNC(=O)C1CC1c1ccc(OCC(F)(F)F)cc1)c1ccncc1 (stereo unspecified)", "pIC50", 4.47),
    ("FC(F)(F)Oc1ccc(C2CC2c2nnc3c4ccccc4cnn23)cc1 (stereo unspecified)", "pIC50", 4.43),
    ("O=C(NNc1nncc2ccccc12)C1CC1c1ccc(OCC(F)(F)F)cc1 (stereo unspecified)", "pIC50", 5.10),
    ("CC(C)=CCOc1ccc(C2CC2C(=O)NNc2nncc3ccccc23)cc1 (stereo unspecified)", "pIC50", 4.16),
    ("FC(F)(F)COc1ccc(C2CC2c2nnc3c4ccccc4cnn23)cc1 (stereo unspecified)", "pIC50", 4.43),
    ("CC(C)=CCOc1ccc(C2CC2c2nnc3c4ccccc4cnn23)cc1 (stereo unspecified)", "pIC50", 4.72),
    ("COc1ccc(C2CC2c2nnc3c4ccccc4cnn23)cc1 (stereo unspecified)", "pIC50", 4.54),
    ("CC(C)=CCC/C(C)=C/COc1ccc(C2CC2C(=O)NNc2nncc3ccccc23)cc1 (stereo unspecified)", "pIC50", 4.64),
    ("O=C(NNc1nncc2ccccc12)C1CC1c1ccc(OC(F)(F)F)cc1 (stereo unspecified)", "pIC50", 4.27),
]

Values were extracted from ChEMBL document CHEMBL1156155.
